species: Homo sapiens; assay: Selectivity index, ratio of Ki for human CB1 receptor to Ki for human CB2 receptor
compounds and their reported Ratio Ki

| mol | data.value |
| --- | --- |
| CCCCCn1cc(C(=O)NC23CC4CC(CC(C4)C2)C3)c(=O)n2nc(-c3cccs3)cc12 | > 1600 |
| CCCCCn1cc(C(=O)NC23CC4CC(CC(C4)C2)C3)c(=O)n2nc(C)c(Br)c12 | > 45 |
| CCCCCn1cc(C(=O)NC23CC4CC(CC(C4)C2)C3)c(=O)n2nc(-c3ccc(C)s3)cc12 | > 862 |
| CCCCCn1cc(C(=O)NC23CC4CC(CC(C4)C2)C3)c(=O)n2nc(-c3ccc(Cl)cc3)cc12 | > 2580 |
| CCCCCn1cc(C(=O)NC2CCCCC2)c(=O)n2nc(C(C)(C)C)cc12 | 55 |
| CCCCCn1cc(C(=O)NC2CCCCCC2)c(=O)n2nc(-c3ccccc3Cl)cc12 | > 970 |

Problem: Using known records, supply Ratio Ki for CCCCCn1cc(C(=O)NC2CCCCCC2)c(=O)n2nc(C(C)(C)C)cc12
Result: 84

Problem: Look up and report measured Ratio Ki for this entry: CCCCCn1cc(C(=O)NC2CCCCC2)c(=O)n2nc(-c3ccc(Cl)cc3)cc12
Result: > 181

Problem: Query Ratio Ki for CCCCCn1cc(C(=O)NC2CCCCC2)c(=O)n2nc(-c3ccccc3C)cc12
Result: > 250

Problem: For the compound CCCCCn1cc(C(=O)NC23CC4CC(CC(C4)C2)C3)c(=O)n2nc(C)c(-c3ccccc3)c12 , give its measured Ratio Ki value.
Result: > 55
